test: Solubility
Format: physicochemical
run_parameters: Clear; read-out: Solubility
value_type: solubility (µg/mL)

smiles_record	value_type	quantitative_readout
CC(=O)O[C@H]1C(=O)[C@@]2(C)[C@H]([C@H](OC(=O)c3ccccc3)[C@]3(O)C[C@H](OC(=O)[C@H](OC(=O)CN(C)C)[C@@H](NC(=O)c4ccccc4)c4ccccc4)C(C)=C1C3(C)C)[C@]1(OC(C)=O)CO[C@@H]1C[C@@H]2O	solubility	2000

----------
test: Plasma stability, rat plasma
Assay type: in vitro ADME
run_parameters: rat plasma (20 μg/mL), 37° C.
Reported half-life is given for each of the following compounds.

smiles_record	half-life
CC(=O)O[C@H]1C(=O)[C@]2(C)[C@@H](OC(=O)CN(C)C)C[C@H]3OC[C@@]3(OC(C)=O)[C@H]2[C@H](OC(=O)c2ccccc2)[C@]2(O)C[C@H](OC(=O)[C@H](O)[C@@H](NC(=O)c3ccccc3)c3ccccc3)C(C)=C1C2(C)C	1040 min
CC(=O)O[C@H]1C(=O)[C@@]2(C)[C@H]([C@H](OC(=O)c3ccccc3)[C@]3(O)C[C@H](OC(=O)[C@H](OC(=O)CN(C)C)[C@@H](NC(=O)c4ccccc4)c4ccccc4)C(C)=C1C3(C)C)[C@]1(OC(C)=O)CO[C@@H]1C[C@@H]2O	3.05 min
